- experimentalProtocol: Evaluation of conversion rate to active form in buffer solution (Experimental Example 1)
- Assay type: physicochemical
- conditionInfo: pH7.4, 0.5 hr, 37° C., 25 umol/L in buffer solution
Structures can show the parent of a compound that is named as a salt.
recordedMetric: Residual rate (%)
Write the value in % as a bare number.

Which Residual rate value belongs to CN1CC[C@H](c2c(OC(=O)N(CCF)CC3CCCCN3)cc(O)c3c(=O)cc(-c4ccccc4Cl)oc23)[C@H](O)C1 (stereo partly shown) ?
16.2

Also need CCN(CC1CCCCN1)C(=O)Oc1cc(O)c2c(=O)cc(-c3ccccc3Cl)oc2c1[C@H]1CCN(C)C[C@H]1O (stereo partly shown) [Example 7, dihydrochloride] , thanks.
49.8

Now the same for CN1CC[C@H](c2c(OC(=O)N(CCC(F)(F)F)CC3CCCCN3)cc(O)c3c(=O)cc(-c4ccccc4Cl)oc23)[C@H](O)C1 (stereo partly shown)
2.2

And what about the compound CCN(C[C@@H]1CCCCN1)C(=O)Oc1cc(O)c2c(=O)cc(-c3ccccc3Cl)oc2c1[C@H]1CCN(C)C[C@H]1O [Example 1, ditrifluoroacetate] ?
53.8

Further, for `CCCN(C[C@@H]1CCCCN1)C(=O)Oc1cc(O)c2c(=O)cc(-c3ccccc3Cl)oc2c1[C@H]1CCN(C)C[C@H]1O` ?
49.4

One more compound: CCCN(CC1CCCCN1)C(=O)Oc1cc(O)c2c(=O)cc(-c3ccccc3Cl)oc2c1[C@H]1CCN(C)C[C@H]1O (stereo partly shown)
48.7

Here is the next compound: CN1CC[C@H](c2c(OC(=O)N(C)CC3CCCCN3)cc(O)c3c(=O)cc(-c4ccccc4Cl)oc23)[C@H](O)C1 (stereo partly shown)
51.4

Proceed to COCCN(CC1CCCCN1)C(=O)Oc1cc(O)c2c(=O)cc(-c3ccccc3Cl)oc2c1[C@H]1CCN(C)C[C@H]1O (stereo partly shown)
10.8

Now consider `CCN(C[C@H]1CCCCN1)C(=O)Oc1cc(O)c2c(=O)cc(-c3ccccc3Cl)oc2c1[C@H]1CCN(C)C[C@H]1O` .
41.7

Okay, and CCN(CCC1CCCCN1)C(=O)Oc1cc(O)c2c(=O)cc(-c3ccccc3Cl)oc2c1[C@H]1CCN(C)C[C@H]1O (stereo partly shown) ?
23.2

====

- experimentalProtocol: Evaluation of conversion rate to active form in buffer solution (Experimental Example 1)
- Type: physicochemical
- conditionInfo: pH6.0, 1 hr, 37° C., 25 umol/L in buffer solution
Structures can show the parent of a compound that is named as a salt.
In plain terms, low Production rate of Alvocidib, meaning strictly below 10%, gives criterion met, and everything else gives criterion not met.

COCCN(CC1CCCCN1)C(=O)Oc1cc(O)c2c(=O)cc(-c3ccccc3Cl)oc2c1[C@H]1CCN(C)C[C@H]1O (stereo partly drawn) :: criterion not met
CN1CC[C@H](c2c(OC(=O)N(C)C[C@@H]3CCCCN3)cc(O)c3c(=O)cc(-c4ccccc4Cl)oc23)[C@H](O)C1 :: criterion met
CCN(CCC1CCCCN1)C(=O)Oc1cc(O)c2c(=O)cc(-c3ccccc3Cl)oc2c1[C@H]1CCN(C)C[C@H]1O (stereo partly drawn) :: criterion not met

Does this molecule meet the criterion Production rate of Alvocidib < 10%? `CCCN(C[C@H]1CCCCN1)C(=O)Oc1cc(O)c2c(=O)cc(-c3ccccc3Cl)oc2c1[C@H]1CCN(C)C[C@H]1O`
criterion met

Likewise for CCN(CC1CCCCN1)C(=O)Oc1cc(O)c2c(=O)cc(-c3ccccc3Cl)oc2c1[C@H]1CCN(C)C[C@H]1O (stereo partly drawn) [Example 7, dihydrochloride] ?
criterion met

Repeat for the following molecule: CN1CC[C@H](c2c(OC(=O)N(CCCC(F)(F)F)CC3CCCCN3)cc(O)c3c(=O)cc(-c4ccccc4Cl)oc23)[C@H](O)C1 (stereo partly drawn)
criterion not met

One more molecule: CCNC(=O)Oc1cc(O)c2c(=O)cc(-c3ccccc3Cl)oc2c1[C@H]1CCN(C)C[C@H]1O [Comparative Example 1, reference compound]
criterion not met

Same lookup for CN1CC[C@H](c2c(OC(=O)N(C)CC3CCCCN3)cc(O)c3c(=O)cc(-c4ccccc4Cl)oc23)[C@H](O)C1 (stereo partly drawn) , please.
criterion met

Similarly, `CN1CC[C@H](c2c(OC(=O)N(C)C[C@H]3CCCCN3)cc(O)c3c(=O)cc(-c4ccccc4Cl)oc23)[C@H](O)C1` ?
criterion met

====

Measured Residual rate of individual entries
- experimentalProtocol: Evaluation of conversion rate to active form in buffer solution (Experimental Example 1)
- Assay type: physicochemical
- conditionInfo: pH6.5, 3 hr, 37° C., 25 umol/L in buffer solution
- Method: For Examples 1 to 16 and Comparative Examples 1 to 14, the attrition rate of the test compound and the conversion rate of the test compound to Alvocidib in a buffer solution were calculated by the following method. Examples 1 to 16 and Comparative Examples 1 to 14 were each left in buffer solutions adjusted to pH 5.0, 5.5, 6.0, 6.5, 7.0 and 7.4, respectively, at a concentration of 25 umol/L at 37° C. […]
Counter-ions that a name gives are not always drawn.
# output: bare number, implied unit %

CCN(CC1CCCCN1)C(=O)Oc1cc(O)c2c(=O)cc(-c3ccccc3Cl)oc2c1[C@H]1CCN(C)C[C@H]1O (some centres unmarked) [Example 7, dihydrochloride] :: 64.8
CN1CC[C@H](c2c(OC(=O)N(CCC(F)(F)F)CC3CCCCN3)cc(O)c3c(=O)cc(-c4ccccc4Cl)oc23)[C@H](O)C1 (some centres unmarked) [Example 13] :: 2.8
COCCN(CC1CCCCN1)C(=O)Oc1cc(O)c2c(=O)cc(-c3ccccc3Cl)oc2c1[C@H]1CCN(C)C[C@H]1O (some centres unmarked) [Example 12] :: 13.4
CCN(C[C@H]1CCCCN1)C(=O)Oc1cc(O)c2c(=O)cc(-c3ccccc3Cl)oc2c1[C@H]1CCN(C)C[C@H]1O [Example 2] :: 45.1

Now let's try a different one.
Quick one: Residual rate of CCCN(C[C@@H]1CCCCN1)C(=O)Oc1cc(O)c2c(=O)cc(-c3ccccc3Cl)oc2c1[C@H]1CCN(C)C[C@H]1O [Example 5] ?
52.6

====

Reported Production rate of Alvocidib values follow for various compounds
- experimentalProtocol: Evaluation of conversion rate to active form in buffer solution (Experimental Example 1)
- Type: physicochemical
- conditionInfo: pH5.5, 0.5 hr, 37° C., 25 umol/L in buffer solution
- Description: For Examples 1 to 16 and Comparative Examples 1 to 14, the attrition rate of the test compound and the conversion rate of the test compound to Alvocidib in a buffer solution were calculated by the following method. Examples 1 to 16 and Comparative Examples 1 to 14 were each left in buffer solutions adjusted to pH 5.0, 5.5, 6.0, 6.5, 7.0 and 7.4, respectively, at a concentration of 25 umol/L at 37° C. […]
Numeric answer only, unit % assumed.

Here is how some compounds turned out for Production rate of Alvocidib.
CCCN(CC1CCCCN1)C(=O)Oc1cc(O)c2c(=O)cc(-c3ccccc3Cl)oc2c1[C@H]1CCN(C)C[C@H]1O (stereo partly shown) :: 2.4
CCN(C[C@H]1CCCCN1)C(=O)Oc1cc(O)c2c(=O)cc(-c3ccccc3Cl)oc2c1[C@H]1CCN(C)C[C@H]1O :: 0.8
CN1CC[C@H](c2c(OC(=O)N(C)C[C@H]3CCCCN3)cc(O)c3c(=O)cc(-c4ccccc4Cl)oc23)[C@H](O)C1 :: 1.5

# next compound below
Request the reported Production rate of Alvocidib associated with CN1CC[C@H](c2c(OC(=O)N(C)CC3CCCCN3)cc(O)c3c(=O)cc(-c4ccccc4Cl)oc23)[C@H](O)C1 (stereo partly shown)
1.6

====

- experimentalProtocol: Evaluation of conversion rate to active form in buffer solution (Experimental Example 1)
- Type: physicochemical
- conditionInfo: pH5.5, 3 hr, 37° C., 25 umol/L in buffer solution
recordedMetric: Residual rate

The following compounds have reported results that may help.
CN1CC[C@H](c2c(OC(=O)N(Cc3ccccc3)CC3CCCCN3)cc(O)c3c(=O)cc(-c4ccccc4Cl)oc23)[C@H](O)C1 (stereo partly drawn) :: 87.8%
CCN(C[C@H]1CCCCN1)C(=O)Oc1cc(O)c2c(=O)cc(-c3ccccc3Cl)oc2c1[C@H]1CCN(C)C[C@H]1O :: 90.4%
CCCN(C[C@H]1CCCCN1)C(=O)Oc1cc(O)c2c(=O)cc(-c3ccccc3Cl)oc2c1[C@H]1CCN(C)C[C@H]1O :: 91.9%
CCCN(CC1CCCCN1)C(=O)Oc1cc(O)c2c(=O)cc(-c3ccccc3Cl)oc2c1[C@H]1CCN(C)C[C@H]1O (stereo partly drawn) :: 90.5%
CN1CC[C@H](c2c(OC(=O)N(C)C[C@H]3CCCCN3)cc(O)c3c(=O)cc(-c4ccccc4Cl)oc23)[C@H](O)C1 :: 87.9%

Look at this compound and give its reported Residual rate. `CN1CC[C@H](c2c(OC(=O)N(C)C[C@@H]3CCCCN3)cc(O)c3c(=O)cc(-c4ccccc4Cl)oc23)[C@H](O)C1`
93.5%

Consider next the compound CN1CC[C@H](c2c(OC(=O)N(CCC(F)(F)F)CC3CCCCN3)cc(O)c3c(=O)cc(-c4ccccc4Cl)oc23)[C@H](O)C1 (stereo partly drawn) in the same way.
61.8%

Another compound to look at: CC(C)N(CC1CCCCN1)C(=O)Oc1cc(O)c2c(=O)cc(-c3ccccc3Cl)oc2c1[C@H]1CCN(C)C[C@H]1O (stereo partly drawn)
86.3%

Queued: CN1CC[C@H](c2c(OC(=O)N(CCF)CC3CCCCN3)cc(O)c3c(=O)cc(-c4ccccc4Cl)oc23)[C@H](O)C1 (stereo partly drawn)
70.2%
